Reported values of pIC50 for individual entries
- Tested on: CD40L-induced NF-κB activation in CD40 sensor cells (HEK Blue)
- Method description: Inhibition of CD40L-induced NF-κB activation in CD40 sensor cells (HEK-Blue)
- Format: cell-based, human
- Condition parameters: Homo sapiens, CD40L 20 ng/mL, 18 h
- Experimental: Activities of the compounds of the disclosure were confirmed in cell-based assays. […] Cells were maintained in DMEM at 80% confluence for each experiment. […] The level of SEAP was determined after 30-minute incubation at 37° C. by reading at 625 nm using a spectrophotometer. […]
Keep in mind that pIC50 stands for -log10 of concentration in molar terms.

Example entries begin here.
Molecule: O=C(Nc1ccc(-c2ccc(C(=O)Nc3cccc4cccc(S(=O)(=O)O)c34)cc2)cc1)c1ccc([N+](=O)[O-])cc1 [Compound 21041]
pIC50: 5.00

Molecule: COC(=O)c1ccc(C(=O)Nc2ccc(-c3ccc(C(=O)Nc4cccc5cccc(S(=O)(=O)O)c45)cc3)cc2)cc1 [Compound 21045]
pIC50: 4.77

Task: What value of pIC50 has been reported for the following molecule? O=C(Nc1ccc(-c2ccc(C(=O)Nc3ccc(C(=O)O)c4ccccc34)cc2)cc1)c1ccc([N+](=O)[O-])cc1 [Compound 25441]
Output: 5.05
